// values below are MIC; system is Salmonella enterica subsp. enterica serovar Typhimurium C77-31

Param item = CC[C@H](C)[C@H](NC(=O)[C@H](CC(C)C)NC(=O)[C@@H](NC(=O)[C@@H](N)CC(=O)O)[C@@H](C)CC)C(=O)N[C@H](C(=O)N[C@H](C(=O)NCC(=O)NCC(=O)N[C@@H](CCCCN)C(=O)N[C@@H](CCC(N)=O)C(=O)N[C@@H](CCCN=C(N)N)C(=O)N[C@@H](CCCCN)C(=O)N[C@@H](CCCCN)C(=O)N[C@@H](CCCN=C(N)N)C(=O)N[C@@H](CCCN=C(N)N)C(=O)N[C@@H](CCCN=C(N)N)C(N)=O)C(C)C)[C@@H](C)CC ; retrieve measured MIC.
4 µM

Param item = CC[C@H](C)[C@H](NC(=O)[C@H](CC(C)C)NC(=O)[C@@H](NC(=O)[C@@H](N)CC(=O)O)[C@@H](C)CC)C(=O)N[C@H](C(=O)N[C@H](C(=O)NCC(=O)NCC(=O)N[C@@H](CCCN=C(N)N)C(=O)N[C@@H](CCCN=C(N)N)C(=O)N[C@@H](CCCN=C(N)N)C(=O)N[C@@H](CCCN=C(N)N)C(=O)N[C@@H](CCCN=C(N)N)C(=O)N[C@@H](CCCN=C(N)N)C(N)=O)C(C)C)[C@@H](C)CC ; retrieve measured MIC.
≥ 64 µM

Param item = CC[C@H](C)[C@H](N)C(=O)N[C@@H](Cc1cnc[nH]1)C(=O)N[C@@H](Cc1cnc[nH]1)C(=O)N[C@H](C(=O)N[C@@H](Cc1cnc[nH]1)C(=O)N[C@@H](Cc1cnc[nH]1)C(=O)N[C@H](C(N)=O)[C@@H](C)CC)[C@@H](C)CC ; retrieve measured MIC.
≥ 64 µM

We now examine a further molecule.
Param item = CC[C@H](C)[C@H](NC(=O)[C@H](CCCN=C(N)N)NC(=O)[C@H](C)NC(=O)[C@H](C)N)C(=O)N[C@H](C(=O)N[C@@H](CC(C)C)C(=O)N[C@@H](CCCN=C(N)N)C(=O)N[C@@H](CC(N)=O)C(=O)N[C@@H](CCCN=C(N)N)C(=O)N[C@@H](Cc1ccccc1)C(=O)N[C@@H](CCCN=C(N)N)C(N)=O)[C@@H](C)CC ; retrieve measured MIC.
≥ 32 µM

----------
- Test system: Enterobacter cloacae beta-12
measured_property: MIC

Param item = CC(C)C[C@H](NC(=O)[C@H](C)NC(=O)CNC(=O)[C@H](CC(C)C)NC(=O)[C@@H](N)Cc1ccccc1)C(=O)N[C@@H](Cc1c[nH]c2ccccc12)C(=O)N[C@@H](CC(N)=O)C(=O)N[C@H](C(=O)N[C@@H](C)C(=O)N[C@@H](CCCCN)C(=O)N[C@@H](CO)C(=O)N[C@@H](CC(C)C)C(=O)N[C@@H](Cc1ccccc1)C(N)=O)C(C)C ; retrieve measured MIC.
≥ 50 µM

----------
- Tested on: Salmonella enterica subsp. enterica serovar Pullorum ATCC 7913
Catalogue of compounds with associated MIC
Provide the reading as a plain figure in µM.

Record C[C@H](NC(=O)[C@H](Cc1c[nH]c2ccccc12)NC(=O)[C@H](Cc1c[nH]c2ccccc12)NC(=O)[C@H](CCCN=C(N)N)NC(=O)[C@H](CCCN=C(N)N)NC(=O)[C@H](Cc1c[nH]c2ccccc12)NC(=O)[C@H](CCCN=C(N)N)NC(=O)[C@H](CCCN=C(N)N)NC(=O)[C@H](Cc1c[nH]c2ccccc12)NC(=O)[C@H](Cc1c[nH]c2ccccc12)NC(=O)CN)C(N)=O [GWWRRWRRWWA] : what is its MIC with Salmonella enterica subsp. enterica serovar Pullorum ATCC 7913?
2

Record CC(C)C[C@H](NC(=O)[C@H](CCCN=C(N)N)NC(=O)[C@H](Cc1c[nH]c2ccccc12)NC(=O)[C@H](CCCN=C(N)N)NC(=O)[C@H](Cc1c[nH]c2ccccc12)NC(=O)[C@H](Cc1c[nH]c2ccccc12)NC(=O)[C@H](Cc1c[nH]c2ccccc12)NC(=O)[C@H](CCCN=C(N)N)NC(=O)[C@H](Cc1c[nH]c2ccccc12)NC(=O)[C@H](CCCN=C(N)N)NC(=O)CN)C(N)=O [GRWRWWWRWRL] : what is its MIC with Salmonella enterica subsp. enterica serovar Pullorum ATCC 7913?
2

***
Record CC[C@H](C)[C@H](NC(=O)[C@H](CCCN=C(N)N)NC(=O)[C@H](C)NC(=O)[C@H](C)N)C(=O)N[C@H](C(=O)N[C@@H](CC(C)C)C(=O)N[C@@H](CCCN=C(N)N)C(=O)N[C@@H](CC(N)=O)C(=O)N[C@@H](CCCN=C(N)N)C(=O)N[C@@H](Cc1ccccc1)C(=O)N[C@@H](CCCN=C(N)N)C(N)=O)[C@@H](C)CC [AARIILRNRFR] : what is its MIC with Salmonella enterica subsp. enterica serovar Pullorum ATCC 7913?
16

----------
- Test system: Salmonella enterica subsp. enterica serovar Pullorum ATCC 7913
measured_property: MIC (µM)
Provide the reading as a plain figure in µM.

Param item = C[C@H](NC(=O)[C@H](CCCN=C(N)N)NC(=O)[C@H](Cc1c[nH]c2ccccc12)NC(=O)[C@H](CCCN=C(N)N)NC(=O)[C@H](Cc1c[nH]c2ccccc12)NC(=O)[C@H](Cc1c[nH]c2ccccc12)NC(=O)[C@H](Cc1c[nH]c2ccccc12)NC(=O)[C@H](CCCN=C(N)N)NC(=O)[C@H](Cc1c[nH]c2ccccc12)NC(=O)[C@@H](N)CCCN=C(N)N)C(N)=O ; retrieve measured MIC.
8

Param item = CC[C@H](C)[C@H](NC(=O)[C@H](CC(C)C)NC(=O)[C@@H](NC(=O)[C@@H](N)CC(=O)O)[C@@H](C)CC)C(=O)N[C@H](C(=O)N[C@H](C(=O)NCC(=O)NCC(=O)N[C@@H](CCCN=C(N)N)C(=O)N[C@@H](CCCN=C(N)N)C(=O)N[C@@H](CCCN=C(N)N)C(=O)N[C@@H](CCCN=C(N)N)C(=O)N[C@@H](CCCN=C(N)N)C(=O)N[C@@H](CCCN=C(N)N)C(N)=O)C(C)C)[C@@H](C)CC ; retrieve measured MIC.
8

Param item = CC[C@H](C)[C@H](NC(=O)[C@H](CC(C)C)NC(=O)[C@@H](NC(=O)[C@@H](N)CC(=O)O)[C@@H](C)CC)C(=O)N[C@H](C(=O)N[C@H](C(=O)NCC(=O)NCC(=O)N[C@@H](CCCCN)C(=O)N[C@@H](CCC(N)=O)C(=O)N[C@@H](CCCN=C(N)N)C(=O)N[C@@H](CCCCN)C(=O)N[C@@H](CCCCN)C(=O)N[C@@H](CCCN=C(N)N)C(=O)N[C@@H](CCCN=C(N)N)C(=O)N[C@@H](CCCN=C(N)N)C(N)=O)C(C)C)[C@@H](C)CC ; retrieve measured MIC.
8

----------
// values below are MIC; system is Bacillus subtilis 168 HT

Record CC[C@H](C)[C@H](NC(=O)CNC(=O)[C@@H](NC(=O)[C@H](CCCCN)NC(=O)[C@@H](NC(=O)CNC(=O)[C@H](CC(C)C)NC(=O)[C@H](Cc1c[nH]c2ccccc12)NC(=O)[C@H](CCCN=C(N)N)NC(=O)[C@@H](N)CC(C)C)[C@@H](C)O)C(C)C)C(=O)N[C@@H](CC(C)C)C(=O)N[C@@H](CCCCN)C(=O)O : what is its MIC with Bacillus subtilis 168 HT?
≥ 92 µM

Record CC(C)C[C@H](NC(=O)[C@H](CC(C)C)NC(=O)[C@H](CCCN=C(N)N)NC(=O)[C@H](CCCN=C(N)N)NC(=O)[C@H](CCCCN)NC(=O)[C@H](C)NC(=O)[C@H](CCCCN)NC(=O)[C@@H](N)CCCCN)C(=O)N[C@@H](CCCCN)C(=O)N[C@@H](CCCCN)C(=O)O : what is its MIC with Bacillus subtilis 168 HT?
≥ 101 µM

***
Record CC[C@H](C)[C@H](NC(=O)[C@H](CCCCN)NC(=O)[C@@H](NC(=O)[C@@H](N)Cc1ccccc1)C(C)C)C(=O)N[C@@H](CC(C)C)C(=O)N[C@@H](C)C(=O)N[C@@H](CCCCN)C(=O)N[C@@H](CC(C)C)C(=O)N[C@H](C(=O)N[C@@H](CC(N)=O)C(=O)N[C@@H](Cc1ccc(O)cc1)C(=O)N[C@@H](C)C(=O)N[C@@H](CCCCN)C(=O)N[C@@H](CC(N)=O)C(=O)O)C(C)C : what is its MIC with Bacillus subtilis 168 HT?
19.8 µM

----------
// values below are MIC; system is Klebsiella pneumoniae ATCC 700603
Provide the reading as a plain figure in µM.

# count of solved cases: 3
Param item = CC[C@H](C)[C@H](N)C(=O)N[C@@H](CC(N)=O)C(=O)N[C@@H](CC(C)C)C(=O)N[C@@H](CCCCN)C(=O)N[C@@H](C)C(=O)N[C@H](C(=O)N[C@@H](C)C(=O)N[C@@H](C)C(=O)N[C@@H](CC(C)C)C(=O)N[C@H](C(=O)N[C@@H](CCCCN)C(=O)N[C@@H](CCCCN)C(=O)N[C@@H](CC(C)C)C(=O)N[C@@H](CC(C)C)C(=O)O)C(C)C)[C@@H](C)CC [INLKAIAALVKKLL] ; retrieve measured MIC.
26.5

Param item = CC[C@H](C)[C@H](NC(=O)[C@H](CCCN=C(N)N)NC(=O)[C@H](CCCCN)NC(=O)[C@@H](NC(=O)[C@@H](N)Cc1ccccc1)[C@@H](C)CC)C(=O)N[C@@H](C)C(=O)N[C@@H](CCCN=C(N)N)C(=O)N[C@@H](CC(C)C)C(=O)N[C@@H](CC(C)C)C(=O)N[C@@H](CCCN=C(N)N)C(=O)N[C@@H](CCCCN)C(=O)N[C@H](C(=O)N[C@@H](Cc1ccccc1)C(N)=O)[C@@H](C)CC [FIKRIARLLRKIF] ; retrieve measured MIC.
5.97

Param item = CC[C@H](C)[C@H](NC(=O)[C@H](CCCN=C(N)N)NC(=O)[C@H](CC(C)C)NC(=O)[C@@H](NC(=O)[C@H](Cc1ccccc1)NC(=O)[C@H](CCCN=C(N)N)NC(=O)[C@H](C)NC(=O)[C@@H](N)CC(C)C)C(C)C)C(=O)N[C@@H](CC(C)C)C(=O)N[C@@H](CCCCN)C(=O)N[C@@H](Cc1ccc(O)cc1)C(=O)NCC(=O)N[C@@H](Cc1ccccc1)C(=O)N[C@@H](CCCCN)C(=O)O [LARFVLRILKYGFK] ; retrieve measured MIC.
64

We now examine a further compound.
Param item = CC(C)C[C@H](NC(=O)[C@H](C)NC(=O)CNC(=O)[C@@H](NC(=O)[C@@H](NC(=O)[C@H](CCCCN)NC(=O)[C@H](CCCCN)NC(=O)[C@H](CC(C)C)NC(=O)[C@H](CC(C)C)NC(=O)[C@H](CCCCN)NC(=O)[C@H](CC(C)C)NC(=O)[C@H](CC(C)C)NC(=O)[C@@H](N)CCCCN)C(C)C)C(C)C)C(=O)NCC(N)=O [KLLKLLKKVVGALG] ; retrieve measured MIC.
22
